system: peripheral blood mononuclear cells (PBMC), T cells; assay: ELISpot assay, IL-5 release (SFC) after stimulation with a-synuclein epitope pools; type: cell-based, human; conditions: Patients Summary; PD patients; of donors tested (peptide)
# key: entry, value: IL-g Peptide + (donors positive to the peptide)
Just the number, please, no unit after it.

In [3]: df
Out[3]:
                                  substance  result_number
0  3521.0015 (KTKEQVTNV; listed as Homo sapiens)              0
1  3521.0064 (GVVHGVATV; listed as Homo sapiens)              0
2  3521.0075 (KQGVAEAPGKTKEGV; listed as Homo sapiens)              1
3  3521.007 (GVVAAAEKTK; listed as Homo sapiens)              1
4  3521.0019 (APGKTKEGV; listed as Homo sapiens)              0

The substance 3521.0072 (EGVVHGVTTVAEKTK; listed as Homo sapiens) , when measured on peripheral blood mononuclear cells (PBMC), T cells, yielded IL-g Peptide + (donors positive to the peptide) of 0

The substance 3521.0022 (GSIAAATGF; listed as Homo sapiens) , when measured on peripheral blood mononuclear cells (PBMC), T cells, yielded IL-g Peptide + (donors positive to the peptide) of 0

The substance 3521.0048 (EQVTNVGGAV; listed as Homo sapiens) , when measured on peripheral blood mononuclear cells (PBMC), T cells, yielded IL-g Peptide + (donors positive to the peptide) of 0

The substance 3521.0037 (LYVGSKTKEG; listed as Homo sapiens) , when measured on peripheral blood mononuclear cells (PBMC), T cells, yielded IL-g Peptide + (donors positive to the peptide) of 1

The substance 3521.0068 (GVAEAPGKTK; listed as Homo sapiens) , when measured on peripheral blood mononuclear cells (PBMC), T cells, yielded IL-g Peptide + (donors positive to the peptide) of 0

The substance 3521.0017 (FMKGLSKAK; listed as Homo sapiens) , when measured on peripheral blood mononuclear cells (PBMC), T cells, yielded IL-g Peptide + (donors positive to the peptide) of 0

The substance 3521.0077 (KTKEGVLYVGSKTKK; listed as Homo sapiens) , when measured on peripheral blood mononuclear cells (PBMC), T cells, yielded IL-g Peptide + (donors positive to the peptide) of 6
